Tested on: Acinetobacter baumannii ATCC17961
assay-explanation: Antimicrobial susceptibility testing: 90% growth inhibitory concentration (IC90) determination, Iso-Sensitest broth
Type: cell-based
conditions: Acinetobacter baumannii, ATCC17961, read-out: ATCC 17961 IC90
Where a name gives a salt, the structure may show the parent alone.
Each entry below lists one item and its recorded IC90 value.
quantity-measured: IC90 (nM)

molecule=Cn1c(-c2ccc(OCF)cc2F)cnc1C(=O)Nc1ccc(C(=O)N2CCN(C(=O)C3CCNCC3)CC2)c(Cl)c1 quantity_measured=IC90 value=60
molecule=COc1ccc(-c2cnc(C(=O)Nc3ccc(C(=O)N4CCN(C(=O)CCOCCNC(=O)CN(C)C)CC4)c(Cl)c3)n2C)c(F)c1F quantity_measured=IC90 value=150
molecule="Cn1c(-c2ccc(OC(F)F)c(F)c2F)cnc1C(=O)Nc1ccc(C(=O)N2CCC(C(=O)N[C@H]3CNC[C@@H]3O)CC2)c(Cl)c1 [Example 93, formate]" quantity_measured=IC90 value=40
molecule=Cn1c(-c2ccc(OC(F)F)c(F)c2F)cnc1C(=O)Nc1ccc(C(=O)N2CCN(C(=O)CC3(O)CCNCC3)CC2)c(Cl)c1 quantity_measured=IC90 value=50
molecule="COc1ccc(-c2cnc(C(=O)Nc3ccc(C(=O)N4CCC(NS(=O)(=O)C5CCNCC5)CC4)c(Cl)c3)n2C)c(F)c1F [Example 235, formate]" quantity_measured=IC90 value=60
molecule=CNCCNC(=O)C1CCN(C(=O)c2ccc(NC(=O)c3ncc(-c4ccc(OCC#N)c(F)c4F)n3C)cc2Cl)CC1 quantity_measured=IC90 value=70
